- Species on record: Homo sapiens
- TEST_DESCRIPTION: In vitro ability to inhibit aggregation of ADP stimulated human platelets using PRP assay.
- Type: functional
The molecules listed here are annotated with their pIC50.
// pIC50 is dimensionless: -log10 of concentration (M)

# example entries with known answers
O=C(O)CC(=O)N1CCC(C(=O)N2CCC3(CCN(c4ccncc4)CC3)C2)CC1 | 5.80
O=C(O)CC(=O)N1CCC(C(=O)N2CCC3(CC2)CCN(c2ccncc2)C3)CC1 | 6.59
O=C(O)CCCCNC(=O)N1CCC2(CC1)CCN(c1ccncc1)C2 | 4.97
O=C(O)Cn1ccc2cc(C(=O)N3CCC4(CC3)CCN(c3ccncc3)C4)ccc21 | 6.02
O=C(O)CCCNC(=O)N1CCC2(CC1)CCN(c1ccncc1)C2 | 4.10

Q: Give pIC50 for the following molecule: CC(CC(=O)O)N1CCC(C(=O)N2CCC3(CC2)CCN(c2ccncc2)C3)CC1 (stereo unspecified)
A: 5.48

Q: Give pIC50 for the following molecule: O=C(O)CCCCCC(=O)N1CCC2(CCN(c3ccncc3)CC2)C1
A: 5.89

---

- MEASUREMENT_TARGET: Integrin alpha-IIb/beta-3 (Homo sapiens, UniProt P05106+P08514)
- Sequence (P05106 27-788 limits assumed): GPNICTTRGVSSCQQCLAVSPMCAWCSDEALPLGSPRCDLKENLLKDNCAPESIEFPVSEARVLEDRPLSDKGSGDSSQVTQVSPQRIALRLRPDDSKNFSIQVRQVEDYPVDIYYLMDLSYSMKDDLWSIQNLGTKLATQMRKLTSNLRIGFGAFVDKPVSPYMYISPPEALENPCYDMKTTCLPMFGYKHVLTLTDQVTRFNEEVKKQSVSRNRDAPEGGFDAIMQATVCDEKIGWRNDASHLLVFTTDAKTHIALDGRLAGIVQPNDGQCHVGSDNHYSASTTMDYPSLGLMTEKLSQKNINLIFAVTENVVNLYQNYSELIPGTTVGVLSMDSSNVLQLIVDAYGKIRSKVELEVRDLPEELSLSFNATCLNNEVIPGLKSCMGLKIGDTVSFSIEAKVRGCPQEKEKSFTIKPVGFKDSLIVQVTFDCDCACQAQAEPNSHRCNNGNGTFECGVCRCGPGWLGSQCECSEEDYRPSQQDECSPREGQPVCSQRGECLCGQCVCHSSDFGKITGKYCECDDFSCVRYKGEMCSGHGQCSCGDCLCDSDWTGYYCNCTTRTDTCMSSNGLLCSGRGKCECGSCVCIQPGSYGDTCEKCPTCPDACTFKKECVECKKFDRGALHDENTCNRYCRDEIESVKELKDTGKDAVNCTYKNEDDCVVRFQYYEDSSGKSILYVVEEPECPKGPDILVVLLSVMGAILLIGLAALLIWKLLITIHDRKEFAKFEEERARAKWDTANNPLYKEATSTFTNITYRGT
- Sequence (P08514 32-887 limits assumed): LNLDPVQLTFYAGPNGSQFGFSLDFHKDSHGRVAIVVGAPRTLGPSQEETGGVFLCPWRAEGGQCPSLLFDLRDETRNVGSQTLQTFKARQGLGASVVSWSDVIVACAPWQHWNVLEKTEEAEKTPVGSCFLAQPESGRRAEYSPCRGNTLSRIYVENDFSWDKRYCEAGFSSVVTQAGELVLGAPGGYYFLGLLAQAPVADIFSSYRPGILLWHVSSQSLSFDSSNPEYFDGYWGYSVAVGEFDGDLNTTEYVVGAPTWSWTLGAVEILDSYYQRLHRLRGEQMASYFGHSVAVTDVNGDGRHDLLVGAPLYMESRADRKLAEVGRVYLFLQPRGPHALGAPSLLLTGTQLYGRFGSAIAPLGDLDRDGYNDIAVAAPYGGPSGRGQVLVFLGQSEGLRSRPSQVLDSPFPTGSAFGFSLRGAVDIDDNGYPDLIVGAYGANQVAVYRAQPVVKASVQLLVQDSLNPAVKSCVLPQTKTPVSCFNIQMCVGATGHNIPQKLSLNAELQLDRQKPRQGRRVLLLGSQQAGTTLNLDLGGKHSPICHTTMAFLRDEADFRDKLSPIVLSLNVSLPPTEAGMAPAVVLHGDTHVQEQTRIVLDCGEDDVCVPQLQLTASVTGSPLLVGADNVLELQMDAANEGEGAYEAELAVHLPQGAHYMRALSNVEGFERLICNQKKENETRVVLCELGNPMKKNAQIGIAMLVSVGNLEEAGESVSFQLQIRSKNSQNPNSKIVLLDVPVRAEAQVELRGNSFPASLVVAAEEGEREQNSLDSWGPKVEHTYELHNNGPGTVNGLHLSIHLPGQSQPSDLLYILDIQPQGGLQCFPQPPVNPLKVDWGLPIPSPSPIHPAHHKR
- Sequence (P08514 891-1039 limits assumed): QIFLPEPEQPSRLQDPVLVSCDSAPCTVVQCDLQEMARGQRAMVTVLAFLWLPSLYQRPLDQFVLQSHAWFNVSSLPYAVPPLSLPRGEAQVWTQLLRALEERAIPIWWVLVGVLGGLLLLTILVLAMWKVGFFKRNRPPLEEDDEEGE
- TEST_DESCRIPTION: In vitro activity to block the binding of fibrinogen to purified human fibrinogen receptor.
The compounds listed here are annotated with their log10 of IC50.
Each number you see is log10 of IC50, and the unit inside the log is nM.

# example entries with known answers
O=C(O)CN1CCC(C(=O)N2CCC3(CC2)CCN(c2ccncc2)C3)CC1 | 2.51
CN(CC(=O)O)C1CCN(C(=O)N2CCC3(CC2)CCN(c2ccncc2)C3)CC1 | 3.08
O=C(O)C1CCN(C(=O)N2CCC3(CC2)CCN(c2ccncc2)C3)CC1 | 3.62
O=C(O)CCN1CCN(C(=O)N2CCC3(CCN(c4ccncc4)CC3)C2)CC1=O | 2.38
O=C(O)CS(=O)(=O)N1CCC(C(=O)N2CCC3(CC2)CCN(c2ccncc2)C3)CC1 | 1.95

Q: Write log10 of IC50 of O=C(O)CCCCNC(=O)N1CCC2(CC1)CCN(c1ccncc1)C2 ; system used: Integrin alpha-IIb/beta-3 (Homo sapiens, UniProt P05106+P08514)
A: 4.08

Q: Write log10 of IC50 of O=C(O)CCn1ccc2cc(C(=O)N3CCC4(CC3)CCN(c3ccncc3)C4)ccc21 ; system used: Integrin alpha-IIb/beta-3 (Homo sapiens, UniProt P05106+P08514)
A: 3.26

Q: Write log10 of IC50 of O=C(O)CN1CCN(C(=O)N2CCC3(CCN(c4ccncc4)CC3)C2)CC1=O ; system used: Integrin alpha-IIb/beta-3 (Homo sapiens, UniProt P05106+P08514)
A: 1.40

Q: Write log10 of IC50 of O=C(O)COc1cccc(C(=O)N2CCC3(CC2)CCN(c2ccncc2)C3)c1 ; system used: Integrin alpha-IIb/beta-3 (Homo sapiens, UniProt P05106+P08514)
A: 2.94

Q: Write log10 of IC50 of O=C(O)CCCCCC(=O)N1CCC2(CCN(c3ccncc3)CC2)C1 ; system used: Integrin alpha-IIb/beta-3 (Homo sapiens, UniProt P05106+P08514)
A: 1.63

Q: Write log10 of IC50 of O=C(O)COC1CCN(C(=O)N2CCC3(CCN(c4ccncc4)CC3)C2)CC1 ; system used: Integrin alpha-IIb/beta-3 (Homo sapiens, UniProt P05106+P08514)
A: 2.18

Q: Write log10 of IC50 of O=C(O)CCN1CCN(C(=O)N2CCC3(CC2)CCN(c2ccncc2)C3)CC1 ; system used: Integrin alpha-IIb/beta-3 (Homo sapiens, UniProt P05106+P08514)
A: 1.94

---

- Species on record: Homo sapiens
- TEST_DESCRIPTION: In vitro ability to inhibit aggregation of ADP stimulated human platelets using PRP assay.
- Type: functional
The molecules listed here are annotated with their pIC50.
// pIC50 is dimensionless: -log10 of concentration (M)

# example entries with known answers
O=C(O)CCCCCNC(=O)N1CCC2(CC1)CCN(c1ccncc1)C2 | 4.13
CN(CC(=O)O)C1CCN(C(=O)N2CCC3(CC2)CCN(c2ccncc2)C3)CC1 | 4.91
O=C(O)CCCCCCC(=O)N1CCC2(CCN(c3ccncc3)CC2)C1 | 4.73
O=C(O)CCN1CCN(C(=O)N2CCC3(CCN(c4ccncc4)CC3)C2)CC1=O | 5.08

From here, focus on the item given below.
Q: Give pIC50 for the following molecule: O=C(O)COc1ccc(C(=O)N2CCC3(CC2)CCN(c2ccncc2)C3)cc1
A: 4.95

---

- Organism: Homo sapiens
- TEST_DESCRIPTION: In vitro ability to inhibit aggregation of ADP stimulated human platelets using PRP assay.
- Type: functional
MEASURED_ENDPOINT: IC50 (nM)
Could you give me the number in nM? Just the number is fine.

# example entries with known answers
O=C(O)CCN1CCN(C(=O)N2CCC3(CC2)CCN(c2ccncc2)C3)CC1 | 3200
O=C(N[C@@H](CCC(=O)N1CCC2(CC1)CCN(c1ccncc1)C2)C(=O)O)OCc1ccccc1 | 4100
O=C(O)CS(=O)(=O)N1CCC(C(=O)N2CCC3(CC2)CCN(c2ccncc2)C3)CC1 | 1100
O=C(O)CC(=O)N1CCCN(C(=O)N2CCC3(CC2)CCN(c2ccncc2)C3)CC1 | 700

Q: Give IC50 for the following molecule: O=C(O)CC(=O)NC1CCN(C(=O)N2CCC3(CC2)CCN(c2ccncc2)C3)C1 (centres undefined)
A: 5900

Q: Give IC50 for the following molecule: O=C(O)CCn1ccc2cc(C(=O)N3CCC4(CC3)CCN(c3ccncc3)C4)ccc21
A: 23300

Q: Give IC50 for the following molecule: O=C(O)CC1CCN(C(=O)N2CCC3(CC2)CCN(c2ccncc2)C3)CC1
A: 1200

Q: Give IC50 for the following molecule: O=C(O)CN1CCN(C(=O)N2CCC3(CCN(c4ccncc4)CC3)C2)CC1=O
A: 1180

Q: Give IC50 for the following molecule: O=C(O)COC1CCN(C(=O)N2CCC3(CCN(c4ccncc4)CC3)C2)CC1
A: 1040

---

- MEASUREMENT_TARGET: Integrin alpha-IIb/beta-3 (Homo sapiens, UniProt P05106+P08514)
- TEST_DESCRIPTION: In vitro activity to block the binding of fibrinogen to purified human fibrinogen receptor.
MEASURED_ENDPOINT: IC50

# example entries with known answers
O=C(O)CCCCCNC(=O)N1CCC2(CC1)CCN(c1ccncc1)C2 | > 50 µM
O=C(O)CCCCC(=O)N1CCC2(CCN(c3ccncc3)CC2)C1 | > 50 µM

Q: Give IC50 for the following compound: O=C(O)CCCNC(=O)N1CCC2(CC1)CCN(c1ccncc1)C2
A: > 50 µM

---

- Species: Homo sapiens
- TEST_DESCRIPTION: In vitro ability to inhibit aggregation of ADP stimulated human platelets using PRP assay.
- Format: functional
MEASURED_ENDPOINT: IC50 (µM)
Could you give me the number in µM? Just the number is fine.

# example entries with known answers
O=C(O)[C@H](CCC(=O)N1CCC2(CC1)CCN(c1ccncc1)C2)NS(=O)(=O)c1cnoc1 | 0.27
O=C(O)CCN1CCC(C(=O)N2CCC3(CC2)CCN(c2ccncc2)C3)CC1 | 1
O=C(O)CN1CCC(C(=O)N2CCC3(CC2)CCN(c2ccncc2)C3)CC1 | 9.5
O=C(O)COC1CCN(C(=O)N2CCC3(CC2)CCN(c2ccncc2)C3)CC1 | 3.8
O=C(O)CCN1CCCN(C(=O)N2CCC3(CC2)CCN(c2ccncc2)C3)CC1 | 3.7
O=C(O)CCNC(=O)N1CCC2(CC1)CCN(c1ccncc1)C2 | 34.6
O=C(O)CN1CCN(C(=O)N2CCC3(CC2)CCN(c2ccncc2)C3)CC1 | 8.9
CCCCOC(=O)N[C@@H](CCC(=O)N1CCC2(CC1)CCN(c1ccncc1)C2)C(=O)O | 4

Q: Give IC50 for the following molecule: O=C(O)COCC1CCN(C(=O)N2CCC3(CC2)CCN(c2ccncc2)C3)CC1
A: 2.8

Q: Give IC50 for the following molecule: O=C(O)CC(=O)N1CCN(C(=O)N2CCC3(CC2)CCN(c2ccncc2)C3)CC1
A: 0.68

Q: Give IC50 for the following molecule: O=C(O)CCCCC(=O)N1CCC2(CCN(c3ccncc3)CC2)C1
A: 80

Q: Give IC50 for the following molecule: O=C(O)C1CCN(C(=O)N2CCC3(CC2)CCN(c2ccncc2)C3)CC1
A: 55

Q: Give IC50 for the following molecule: O=C(O)CCC(=O)N1CCN(C(=O)N2CCC3(CC2)CCN(c2ccncc2)C3)CC1
A: 24.1

Q: Give IC50 for the following molecule: O=C(O)COc1cccc(C(=O)N2CCC3(CC2)CCN(c2ccncc2)C3)c1
A: 18.3

Source of measurements: ChEMBL document CHEMBL1135274
